Tested on: serotonine and 5-hydroxy-indolylacetic acid levels of the cerebrum
Run description: Serotonine and 5-hydroxy-indolylacetic acid levels of the cerebrum (brain) in rats, % of controls
Format: in vivo, male Wistar rats
Recorded conditions: ip; rat, i.p., 200 mg/kg, 8 hours; read-out: Brain SE level (percentages in relation to the controls)
Please provide measured response vs control in vivo at 200 mg/kg for the entries that follow.
Field: numeric (%). Do not append units.

Can you look up response vs control in vivo at 200 mg/kg on serotonine and 5-hydroxy-indolylacetic acid levels of the cerebrum for COCCNC1=C(C(=S)SSC(=S)C2=C(NCCOC)CCC2)CCC1 [M-4] ?
106

Can you look up response vs control in vivo at 200 mg/kg on serotonine and 5-hydroxy-indolylacetic acid levels of the cerebrum for CCNC1=C(C(=S)SSC(=S)C2=C(NCC)CCC2)CCC1 [M-6] ?
104

Can you look up response vs control in vivo at 200 mg/kg on serotonine and 5-hydroxy-indolylacetic acid levels of the cerebrum for CCCCNC1=C(C(=S)SSC(=S)C2=C(NCCCC)CCC2)CCC1 [M-2] ?
97.3

Can you look up response vs control in vivo at 200 mg/kg on serotonine and 5-hydroxy-indolylacetic acid levels of the cerebrum for S=C(SSC(=S)C1=C(NC2CCCCC2)CCC1)C1=C(NC2CCCCC2)CCC1 [M-5] ?
105

Can you look up response vs control in vivo at 200 mg/kg on serotonine and 5-hydroxy-indolylacetic acid levels of the cerebrum for C=CCNC1=C(C(=S)SSC(=S)C2=C(NCC=C)CCC2)CCC1 [M-7] ?
108

###

Please provide measured LD50 for the entries that follow.
Run description: in vivo
Recorded conditions: mouse, in vivo, ip; mice

Quick one: LD50 for CN1CCCN(C(=S)SSC(=S)N2CCCN(C)CC2)CC1 [FLA-63] ?
150 mg/kg

Quick one: LD50 for COCCNC1=C(C(=S)SSC(=S)C2=C(NCCOC)CCC2)CCC1 [M-4] ?
> 1500 mg/kg

Quick one: LD50 for S=C(SSC(=S)C1=C(NC2CCCCC2)CCC1)C1=C(NC2CCCCC2)CCC1 [M-5] ?
> 1000 mg/kg

Quick one: LD50 for C=CCNC1=C(C(=S)SSC(=S)C2=C(NCC=C)CCC2)CCC1 [M-7] ?
> 1000 mg/kg

Quick one: LD50 for NNc1nncc2ccccc12 [Hydralazine] ?
83 mg/kg

Quick one: LD50 for CCNC1=C(C(=S)SSC(=S)C2=C(NCC)CCC2)CCC1 [M-6] ?
1000 to 1500 mg/kg

Quick one: LD50 for S=C(Nc1ccccc1)Nc1nccs1 [U-14624, N-phenyl-N'-(2-thiazolyl)-thiourea] ?
~680 mg/kg

Quick one: LD50 for O=C(CO)c1coc(=O)c2c(O)cccc12 [Oosponol] ?
40 mg/kg

Quick one: LD50 for c1ccc(-c2ccccn2)nc1 [2,2-D, 2,2-dipyridyl] ?
280 mg/kg

###

System: serotonine and 5-hydroxy-indolylacetic acid levels of the cerebrum
Run description: Serotonine and 5-hydroxy-indolylacetic acid levels of the cerebrum (brain) in rats, % of controls
Type: in vivo, male Wistar rats
Recorded conditions: ip; rat, i.p., 200 mg/kg, 8 hours; read-out: Brain 5-HIAA level (percentages in relation to the controls)
Please provide measured response vs control in vivo at 200 mg/kg for the entries that follow.
Field: numeric (%). Do not append units.

Quick one: response vs control in vivo at 200 mg/kg for CCNC1=C(C(=S)SSC(=S)C2=C(NCC)CCC2)CCC1 ?
195

Quick one: response vs control in vivo at 200 mg/kg for COCCNC1=C(C(=S)SSC(=S)C2=C(NCCOC)CCC2)CCC1 ?
161

Quick one: response vs control in vivo at 200 mg/kg for C=CCNC1=C(C(=S)SSC(=S)C2=C(NCC=C)CCC2)CCC1 ?
126

Quick one: response vs control in vivo at 200 mg/kg for S=C(SSC(=S)C1=C(NC2CCCCC2)CCC1)C1=C(NC2CCCCC2)CCC1 ?
178

###

Run description: Toxicity, LD50, rabbits
Recorded conditions: rabbit, in vivo, po
Property measured: LD50 (mg/kg)
Field: numeric (mg/kg). Do not append units.

Quick one: LD50 for CCN(CC)C(=S)SSC(=S)N(CC)CC [DS, bis(diethylthiocarbamoyl)-disulfide] ?
1800
